Assay: Solubility in water
Format: physicochemical
measurement-type: solubility

Exam item: Look up solubility: CCOc1ccccc1OCCNC(C)Cc1ccc(OC)c(S(N)(=O)=O)c1.Cl (stereo not shown) [YM-12617]
Marked response: 3000 to 5000 µg/mL

All figures here come from patent US4772475A.
